experimental.system: T1, Mutant Human HTT Exon 1 48Q (GST) (human)
T1 construct: recombinant His- and GST-tagged fusion; also called HTT Exon 1 Q48; 48Q HTT Exon-1
T1 sequence (chain, as listed by the source mutant limits assumed): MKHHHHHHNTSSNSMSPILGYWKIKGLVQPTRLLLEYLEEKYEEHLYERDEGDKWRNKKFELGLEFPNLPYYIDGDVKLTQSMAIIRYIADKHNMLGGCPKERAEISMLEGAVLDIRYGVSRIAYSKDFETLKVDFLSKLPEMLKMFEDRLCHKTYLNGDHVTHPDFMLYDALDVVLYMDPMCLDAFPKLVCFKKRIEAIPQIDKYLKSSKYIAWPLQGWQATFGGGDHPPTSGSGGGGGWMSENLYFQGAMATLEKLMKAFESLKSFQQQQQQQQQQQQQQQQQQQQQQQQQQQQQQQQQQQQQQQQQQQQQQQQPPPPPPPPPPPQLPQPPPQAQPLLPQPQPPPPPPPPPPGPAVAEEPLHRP
test.name: HTT sandwich ELISA
measured.parameter: EC50 (nM)
Write down the numeric answer in nM and omit the unit.

Example binders with recorded EC50:
ATL_0006183 (antibody, V domains shown, HD patient (ENBB) HCDR3 in ATL5895 VH, ATL5895 VL; also called ATL_6183; ATL6183) VH: EVQLVESGGGLVKPGGSLRLSCAASGFTFNKAWMSWVRQAPGKGLEWVGRIKSGIDAGTTDYAAPVKGRFTISRDDSKNTLYLQMNSLKTEDTAVYYCTPPPYYYYGLDVWGQGTTVTVSS VL: QSALTQPRSVSGSPGQSVTISCTGTSSDVGSYNLVSWYQQHPGKAPKLMIYEVNKRPSGVPDRFSGSKSGATASLTISGLQAEDEADYYCGSYAGTANVFGTGTKVTVL	9.2
ATL_0006185 (antibody, V domains shown, HD patient (ENBB) HCDR3 in ATL5895 VH, ATL5895 VL; also called ATL_6185; ATL6185) VH: EVQLVESGGGLVKPGGSLRLSCAASGFTFNKAWMSWVRQAPGKGLEWVGRIKSGIDAGTTDYAAPVKGRFTISRDDSKNTLYLQMNSLKTEDTAVYYCTPPPYYYYGLNVWGQGTTVTVSS VL: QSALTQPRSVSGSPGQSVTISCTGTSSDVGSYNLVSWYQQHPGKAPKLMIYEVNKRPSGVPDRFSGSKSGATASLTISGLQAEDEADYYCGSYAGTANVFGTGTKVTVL	7.31

# next binder below
Which value of EC50 has been reported for ATL_0006184 (antibody, V domains shown, HD patient (ENBB) HCDR3 in ATL5901 VH, ATL5901 VL; also called ATL_6184; ATL6184) VH: EVQLVESGGGLVKPGGSLRLSCAASGFTFNKAWMSWVRQAPGKGLEWVGRIKSGIDAGTTDYAAPVKGRFTISRDDSKATLYLQMNSLKTEDTAVYYCTPPPYYYYGLDVWGQGTTVTVSS VL: QSALTQPASVSGSPGQSITISCTGTSSDVGGYKLVSWYQQHPGRAPKLMIYEVSKRPSGVSSRFSGSKSGSTASLTISGLQAEDEADYYCSSYAGSSVVFGGGTKLTVL in the records?
10.1
